# Test system: RAW264.7
# PROCEDURE_TEXT: Cytotoxicity against mouse RAW264.7 cells up to 25 ug/mL
MEASURED_QUANTITY: Activity

{"COMPOUND": "CC1=C[C@](C)(/C=C/C=C/c2ccccc2)[C@](C)(C(=O)O)[C@H]2C(C)=C[C@@H](C)[C@H]12", "RESULT": "Non-toxic"}
{"COMPOUND": "CCC(O)/C(C)=C/C(C)C(O)/C(C)=C/C(C)=C/C(C)/C=C/c1ccccc1 (configuration not stated)", "RESULT": "Non-toxic"}
{"COMPOUND": "CCC1=C[C@@H](C)[C@@H]2C(C)=C[C@](C)(/C=C/C=C/c3ccccc3)[C@](C)(C(=O)O)[C@@H]12", "RESULT": "Non-toxic"}
{"COMPOUND": "CCC1=C[C@@](/C=C/c2ccccc2)(CC)[C@](C)(C(=O)O)[C@H]2C(CC)=C[C@@H](C)[C@H]12", "RESULT": "Non-toxic"}
{"COMPOUND": "CC(=O)C/C(C)=C/C(C)/C=C/c1ccccc1 (configuration not stated)", "RESULT": "Non-toxic"}
{"COMPOUND": "CCC1=C[C@@H](C)[C@@H]2C(C)=C[C@](C)(/C=C(C)/C=C/c3ccccc3)[C@](C)(C(=O)O)[C@@H]12", "RESULT": "Non-toxic"}
{"COMPOUND": "CNC(=N)NCCC[C@H](N)C(=O)O", "RESULT": "Non-toxic"}

Where these numbers come from: ChEMBL document CHEMBL1221398
